target: HLA-A*31:01; assay: IEDB peptide-MHC binding, purified MHC/direct/fluorescence; filed as Kd, often an IC50 or EC50 that approximates it; bounds were set here for any values at or beyond the usual limits of such assays; details: source organism: Rickettsia prowazekii
READOUT: Kd

[
  {
    "SEQUENCE_STRING": "YGGKKAVTY",
    "TEST_TARGET": "HLA-A*31:01",
    "READOUT": "Kd",
    "MEAS_VALUE": "≥ 20 µM"
  }
]

###

biological target: HLA-A*30:02; experiment: IEDB peptide-MHC binding, purified MHC/competitive/radioactivity; filed as Kd, often an IC50 or EC50 that approximates it; bounds were set here for any values at or beyond the usual limits of such assays; settings: source organism: Mammarenavirus guanaritoense
pKd: −log10 of the molar value.

[
  {
    "SEQUENCE_STRING": "SWLDFDEKLV",
    "pKd": 5.31
  },
  {
    "SEQUENCE_STRING": "CSKILDLCY",
    "pKd": 6.18
  },
  {
    "SEQUENCE_STRING": "WCEFVDFSV",
    "pKd": 5.10
  }
]
